Record type: Kd measurement. Applies to: FABP4 (Homo sapiens, UniProt P15090)

Some solved cases for reference:
[
  {
    "Compound": "CC(OCc1cc(=O)n2nc(-c3ccccc3)nc2[nH]1)c1ccccc1Cl (stereo not shown)",
    "Measurement target": "FABP4 (Homo sapiens, UniProt P15090)",
    "Kd": "1 to 200 nM"
  },
  {
    "Compound": "C=CCC(OCc1cc(=O)n2nc(-c3ccccc3)nc2[nH]1)c1ccccc1Cl (stereo not shown)",
    "Measurement target": "FABP4 (Homo sapiens, UniProt P15090)",
    "Kd": "1 to 200 nM"
  },
  {
    "Compound": "O=c1cc(COCC2(c3cccc(F)c3)CC2)[nH]c2nc(-c3ccccc3)nn12",
    "Measurement target": "FABP4 (Homo sapiens, UniProt P15090)",
    "Kd": "1 to 200 nM"
  },
  {
    "Compound": "O=c1cc(CNC2(c3cccc(C(F)(F)F)c3)CC2)[nH]c2nc(-c3ccccc3)nn12",
    "Measurement target": "FABP4 (Homo sapiens, UniProt P15090)",
    "Kd": "200 to 5000 nM"
  },
  {
    "Compound": "O=c1cc(COCc2cccnc2Cl)[nH]c2nc(-c3ccccc3)nn12",
    "Measurement target": "FABP4 (Homo sapiens, UniProt P15090)",
    "Kd": "200 to 5000 nM"
  },
  {
    "Compound": "[2H]C([2H])([2H])OC(C(=O)NCC1(c2ccc(Cl)cc2)CCC1)(C([2H])([2H])[2H])C([2H])([2H])c1cc(=O)n2nc(-c3ccccc3)nc2[nH]1 (stereo not shown)",
    "Measurement target": "FABP4 (Homo sapiens, UniProt P15090)",
    "Kd": "1 to 200 nM"
  }
]

Would you mind telling me what Kd value was observed for O=c1cc(COCC(O)c2ccccc2Cl)[nH]c2nc(-c3ccccc3)nn12 (stereo not shown) ?
> 5000 nM

Would you mind telling me what Kd value was observed for COC(C)(Cc1cc(=O)n2nc(-c3ccccc3)nc2[nH]1)C(=O)NCC1(c2ccc(Cl)cc2)CCC1 (stereo not shown) ?
1 to 200 nM

----------
target: FABP5 (Homo sapiens)
Sequence (Q01469 whole entry): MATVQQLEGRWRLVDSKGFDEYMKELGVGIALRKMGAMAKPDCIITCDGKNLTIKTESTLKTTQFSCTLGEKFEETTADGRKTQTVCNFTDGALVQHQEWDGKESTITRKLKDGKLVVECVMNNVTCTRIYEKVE
Measured property: Kd

Some solved cases for reference:
[
  {
    "Compound": "O=c1cc(COCC2CCCCC2)[nH]c2nc(-c3ccccc3)nn12",
    "Kd": "0.5 to 100 µM"
  },
  {
    "Compound": "O=c1cc(COC(CO)c2ccccc2Cl)[nH]c2nc(-c3ccccc3)nn12 (stereo not drawn)",
    "Kd": "0.5 to 100 µM"
  },
  {
    "Compound": "O=c1cc(COCc2cccc(Cl)c2Cl)[nH]c2nc(-c3ccccc3)nn12",
    "Kd": "0.5 to 100 µM"
  },
  {
    "Compound": "O=c1cc(COCC(O)c2ccccc2Cl)[nH]c2nc(-c3ccccc3)nn12 (stereo not drawn)",
    "Kd": "0.5 to 100 µM"
  },
  {
    "Compound": "CCC(OCc1cc(=O)n2nc(-c3ccccc3)nc2[nH]1)C1CCCCC1 (stereo not drawn)",
    "Kd": "0.5 to 100 µM"
  }
]

# query: Kd | item O=c1cc(COCc2cccnc2F)[nH]c2nc(-c3ccccc3)nn12 | system: FABP5 (Homo sapiens)
0.5 to 100 µM

# query: Kd | item O=c1cc(COC(CC2CC2)c2ccccc2)[nH]c2nc(-c3ccccc3)nn12 (stereo not drawn) | system: FABP5 (Homo sapiens)
0.5 to 100 µM

# query: Kd | item CN(Cc1ccc(C(F)(F)F)cc1)Cc1cc(=O)n2nc(-c3ccccc3)nc2[nH]1 | system: FABP5 (Homo sapiens)
0.5 to 100 µM

# query: Kd | item CC(C)(Cc1ccccc1)OCc1cc(=O)n2nc(-c3ccccc3)nc2[nH]1 | system: FABP5 (Homo sapiens)
0.5 to 100 µM
